Measured activity coefficient values are reported for all entries that follow.
Assay: activity coefficient (dimensionless); of the first substance listed, at infinite dilution; xn = mol fraction of the nth substance listed
Conditions: 333.25 K; Liquid; Chromatography; x1 = 0
Provide a numeric answer; units are not to be included.

Example compounds with recorded activity coefficient:
{"compound": "C1CCCCC1 [cyclohexane] + CCCCCC[n+]1ccn(C)c1.O=S(=O)([N-]S(=O)(=O)C(F)(F)F)C(F)(F)F", "quantity": "activity coefficient", "measured_number": 4.59}
{"compound": "C=CCCCCCCCC [1-decene] + CCCCCC[n+]1ccn(C)c1.O=S(=O)([N-]S(=O)(=O)C(F)(F)F)C(F)(F)F", "quantity": "activity coefficient", "measured_number": 14.4}
{"compound": "CCCCCC [hexane] + CCCCCC[n+]1ccn(C)c1.O=S(=O)([N-]S(=O)(=O)C(F)(F)F)C(F)(F)F", "quantity": "activity coefficient", "measured_number": 6.94}

Attention now turns to another entry.
Exercise: I'd like to know its activity coefficient. The compound in question is CCC(C)(C)O [2-methylbutan-2-ol] + CCCCCC[n+]1ccn(C)c1.O=S(=O)([N-]S(=O)(=O)C(F)(F)F)C(F)(F)F
Key: 1.3
